// reported FACS Cell Binding for each item listed
# TARGET_OF_ASSAY: T1, native PRLR expressing T47D cells (Homo sapiens, UniProt P16471)
# T1 construct: a native PRLR expressing cell line (T47D); endogenous in cells; host or cells: T47D
# T1 sequence (P16471 25-622): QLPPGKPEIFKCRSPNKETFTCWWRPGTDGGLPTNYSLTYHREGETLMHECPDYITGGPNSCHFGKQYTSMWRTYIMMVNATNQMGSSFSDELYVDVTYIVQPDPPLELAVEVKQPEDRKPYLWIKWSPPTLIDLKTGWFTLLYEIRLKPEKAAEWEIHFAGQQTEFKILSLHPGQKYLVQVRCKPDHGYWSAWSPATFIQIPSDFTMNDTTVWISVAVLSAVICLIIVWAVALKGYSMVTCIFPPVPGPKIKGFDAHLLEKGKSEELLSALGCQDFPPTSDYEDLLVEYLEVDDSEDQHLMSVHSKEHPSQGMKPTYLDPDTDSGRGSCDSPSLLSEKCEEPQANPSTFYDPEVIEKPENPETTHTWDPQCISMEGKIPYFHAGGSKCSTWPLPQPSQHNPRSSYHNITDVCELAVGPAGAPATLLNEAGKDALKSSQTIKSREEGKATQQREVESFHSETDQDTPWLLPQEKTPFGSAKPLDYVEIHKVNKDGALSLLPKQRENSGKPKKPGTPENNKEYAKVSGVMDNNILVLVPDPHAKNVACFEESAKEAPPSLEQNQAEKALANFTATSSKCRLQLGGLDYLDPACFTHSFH
# PROTOCOL_NOTES: FACS cell surface binding

[
  {
    "MOLECULE": "H1H6967N: anti-PRLR antibody, human IgG1 Fc form of H2M6967N of Table 1; HCVR/LCVR SEQ ID NOs 354/362 (antibody, V domains shown, human IgG1 Fc) VH: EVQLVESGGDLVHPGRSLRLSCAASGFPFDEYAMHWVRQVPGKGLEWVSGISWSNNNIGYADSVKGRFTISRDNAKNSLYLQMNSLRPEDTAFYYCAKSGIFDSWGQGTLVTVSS VL: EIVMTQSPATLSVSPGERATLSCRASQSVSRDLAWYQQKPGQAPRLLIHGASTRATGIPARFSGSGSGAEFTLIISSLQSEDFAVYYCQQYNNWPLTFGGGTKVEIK",
    "MEASUREMENT_UNIT": "Fold Above Background",
    "FACS Cell Binding": 41
  },
  {
    "MOLECULE": "H1H6803P: fully human anti-PRLR antibody, human IgG1 Fc; HCVR/LCVR SEQ ID NOs 226/234 (antibody, V domains shown) VH: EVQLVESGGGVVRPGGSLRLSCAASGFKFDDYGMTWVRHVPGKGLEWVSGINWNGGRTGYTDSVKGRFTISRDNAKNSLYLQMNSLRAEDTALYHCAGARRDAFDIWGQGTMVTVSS VL: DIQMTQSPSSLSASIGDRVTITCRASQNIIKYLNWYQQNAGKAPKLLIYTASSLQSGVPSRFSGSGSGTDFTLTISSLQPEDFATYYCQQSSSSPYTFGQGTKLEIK",
    "MEASUREMENT_UNIT": "Fold Above Background",
    "FACS Cell Binding": 39
  },
  {
    "MOLECULE": "H1H6782P: fully human anti-PRLR antibody, non-blocking; HCVR/LCVR SEQ ID NOs 66/74 (antibody, V domains shown) VH: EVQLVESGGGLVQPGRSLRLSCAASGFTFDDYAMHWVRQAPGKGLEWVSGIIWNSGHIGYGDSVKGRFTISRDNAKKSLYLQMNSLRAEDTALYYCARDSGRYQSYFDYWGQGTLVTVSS VL: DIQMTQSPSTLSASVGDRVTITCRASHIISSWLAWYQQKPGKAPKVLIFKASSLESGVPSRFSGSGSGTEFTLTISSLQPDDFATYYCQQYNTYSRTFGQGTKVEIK",
    "MEASUREMENT_UNIT": "Fold Above Background",
    "FACS Cell Binding": 43
  },
  {
    "MOLECULE": "H1H6966N: anti-PRLR antibody, human IgG1 Fc form of H2M6966N of Table 1; HCVR/LCVR SEQ ID NOs 338/346 (antibody, V domains shown, human IgG1 Fc) VH: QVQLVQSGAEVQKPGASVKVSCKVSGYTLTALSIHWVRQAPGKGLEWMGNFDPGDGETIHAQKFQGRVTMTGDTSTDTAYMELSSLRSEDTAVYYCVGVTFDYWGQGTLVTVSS VL: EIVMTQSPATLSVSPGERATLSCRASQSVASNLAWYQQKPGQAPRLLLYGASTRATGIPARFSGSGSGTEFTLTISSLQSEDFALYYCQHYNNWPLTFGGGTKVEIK",
    "MEASUREMENT_UNIT": "Fold Above Background",
    "FACS Cell Binding": 31
  }
]
